tested on: Streptococcus pneumoniae CN33; test: minimum inhibitory concentration, Streptococcus pneumoniae CN33 (DST agar+10% horse blood); assay type: cell-based
Test readout: MIC

Exercise: Under Streptococcus pneumoniae CN33: MIC value of CC(=O)N/C=C/SC1=C(C(=O)[O-])N2C(=O)[C@H](C(C)SCc3ccccc3)[C@H]2C1.[Na+] (stereo partly shown) ?
Solution: 0.2 µg/mL

Exercise: Please answer likewise for C=CCSC(C)[C@H]1C(=O)N2C(C(=O)[O-])=C(S/C=C/NC(C)=O)C[C@H]12.[Na+] (stereo partly shown)
Solution: ≤ 0.2 µg/mL

Exercise: Same lookup for CC[C@@H]1C(=O)N2C(C(=O)[O-])=C(S/C=C/NC(C)=O)C[C@H]12.[Na+] , please.
Solution: ≤ 0.1 µg/mL

Exercise: And what about the compound CC(=O)N/C=C/SC1=C(C(=O)[O-])N2C(=O)[C@H](C(C)SCCNC(C)=O)[C@H]2C1.[Na+] (stereo partly shown) ?
Solution: 0.2 µg/mL

###

system: Proteus mirabilis C977; experiment: minimum inhibitory concentration, Proteus mirabilis C977 (DST agar+10% horse blood); type: cell-based
Test readout: MIC
Number first, unit second: that is the form wanted.

Exercise: # lookup: MIC of CC[C@@H]1C(=O)N2C(C(=O)[O-])=C(SCCNC(C)=O)C[C@H]12.[Na+]
Solution: 10 µg/mL

Exercise: Thanks! And CC[C@@H]1C(=O)N2C(C(=O)[O-])=C(S/C=C/NC(C)=O)C[C@H]12.[Na+] ?
Solution: 10 µg/mL

Exercise: Now consider C=CCSC(C)[C@H]1C(=O)N2C(C(=O)[O-])=C(S/C=C/NC(C)=O)C[C@H]12.[Na+] (some centres unmarked) .
Solution: 100 µg/mL

Exercise: Could you do the same for CC(=O)N/C=C/SC1=C(C(=O)[O-])N2C(=O)[C@H](C(C)SCCNC(C)=O)[C@H]2C1.[Na+] (some centres unmarked) , please?
Solution: 12.5 µg/mL

Exercise: Next entry: CC(=O)N/C=C/SC1=C(C(=O)[O-])N2C(=O)[C@H](C(C)SCc3ccccc3)[C@H]2C1.[Na+] (some centres unmarked)
Solution: 12.5 µg/mL

###

Test system: Enterobacter cloacae N1
Test: minimum inhibitory concentration, Enterobacter cloacae N1 (DST agar+10% horse blood)
Format: cell-based
Details: Enterobacter cloacae, Enterobactor cloacae N1
Description: The minimum inhibitory concentrations (MIC) of the compound (e54) was determined using a standard DST agar+10% horse blood substrate. The tests used an undiluted inoculum of bacteria. […] The minimum inhibitory concentrations (MIC) of this compound was determined using a standard DST agar+10% horse blood substrate. The minimum inhibitory concentrations (MIC) of this compound was determined using a standard DST agar+10% horse blood substrate. The tests used an undiluted inoculum of bacteria.
Test readout: MIC (µg/mL)
Express the result in µg/mL but write the number alone.

Exercise: Which measured MIC value corresponds to CC[C@@H]1C(=O)N2C(C(=O)[O-])=C(S/C=C/NC(C)=O)C[C@H]12.[Na+] ?
Solution: 2.5

Exercise: What do you get for C=CCSC(C)[C@H]1C(=O)N2C(C(=O)[O-])=C(S/C=C/NC(C)=O)C[C@H]12.[Na+] (some centres unmarked) ?
Solution: 25

Exercise: # repeat for CC(=O)N/C=C/SC1=C(C(=O)[O-])N2C(=O)[C@H](C(C)SCCNC(C)=O)[C@H]2C1.[Na+] (some centres unmarked)
Solution: 5

Exercise: Now consider CC(=O)N/C=C/SC1=C(C(=O)[O-])N2C(=O)[C@H](C(C)SCc3ccccc3)[C@H]2C1.[Na+] (some centres unmarked) and answer again.
Solution: 3.1

Exercise: What do we get for CC[C@@H]1C(=O)N2C(C(=O)[O-])=C(SCCNC(C)=O)C[C@H]12.[Na+] ?
Solution: 20
